assay: gradient 5% acetonitrile 3 min, to 50% in 2 min, to 85% in 15 min, held 3 min, 100 µL/min; conditions: column: Zorbax Extend-C18 2.1 x 50 mm; eluents: water / acetonitrile, 0.1% formic acid
measurement-name: RP-LC retention time (s)

Check out these entries, answers already filled in.
molecule	measurement-name	recorded-value
O=C1CCC(c2nc(-c3ccc4c(c3)OCO4)no2)=NN1Cc1ccccc1	RP-LC retention time	1050
CCCN(Cc1ccc(OC)c(OC)c1)Cc1cc(=O)n2ccc(C)cc2n1	RP-LC retention time	613
CC(=O)Nc1ccc(OCC(=O)N(C)Cc2ccccc2)nc1	RP-LC retention time	544
CCn1cc(S(=O)(=O)NCc2cccc(Cl)c2)c2cccnc21	RP-LC retention time	862
COc1ccc(-c2csc(NC3=NS(=O)(=O)c4ccccc43)n2)cc1	RP-LC retention time	886
CC1Oc2ccc(-c3csc(NS(C)(=O)=O)n3)cc2NC1=O (stereo not given)	RP-LC retention time	609
Cc1cc(NS(=O)(=O)c2cc(-c3ccn[nH]3)sc2C)ccc1Br	RP-LC retention time	908
CCOC(=O)C1CCN(C(=O)C2CN(C(=O)c3ccncc3)CC23CCCCC3)CC1 (stereo not given)	RP-LC retention time	703
O=C(CCCn1nnc2ccccc2c1=O)Nc1ccccc1Cl	RP-LC retention time	770
Cc1nc(C(=O)Nc2ccc(Cl)cc2F)c(C)o1	RP-LC retention time	1020

(P) COC(=O)N1CCN(CCNC(=O)NCCCc2ccccc2)CC1
(Q) Cc1cc2c(c(=O)n(-c3ccc(F)cc3)c(=O)n2CC(=O)Nc2ccc(F)cc2)n1C
(R) COc1ccc(-n2c(=O)c(C(=O)Nc3ccc4c(c3)OCO4)c(O)c3cccnc32)cc1
# ascending order, key=RP-LC retention time List the labels, following the order given in the request.
P, Q, R

====

test: gradient 5% acetonitrile 3 min, to 50% in 2 min, to 85% in 15 min, held 3 min, 100 µL/min; conditions: column: Zorbax Extend-C18 2.1 x 50 mm; eluents: water / acetonitrile, 0.1% formic acid
measurement-name: RP-LC retention time (s)

line-notation	RP-LC retention time, s
Cc1cccc(C)c1NC(=O)NCc1ccco1	790
COCCCNS(=O)(=O)c1cc(-c2nc(C)cs2)n(CC(=O)N2CCCCC2)c1	824
Cn1c(=O)c2nc(SCCC(=O)Nc3ccc(F)cc3)n(C)c2n(C)c1=O	690

(P) Cc1nn(-c2ccccc2)c(C)c1S(=O)(=O)N1CCC(C(=O)NCc2ccccc2Cl)CC1
(Q) COc1ccc(CCC(=O)N2CCn3c(C)nnc3C2)cc1
Which of the two gives a bigger number for RP-LC retention time: P or Q ? Output the label that corresponds to your choice.
P
(P: 963 s, Q: 569 s)

====

assay: gradient 5% acetonitrile 3 min, to 50% in 2 min, to 85% in 15 min, held 3 min, 100 µL/min; conditions: column: Zorbax Extend-C18 2.1 x 50 mm; eluents: water / acetonitrile, 0.1% formic acid
measurement-name: RP-LC retention time (s)

Check out these entries, answers already filled in.
molecule	recorded-value
COc1cccc(-c2cc(=O)n3c4ccccc4n(CC(=O)NC(C)C)c3n2)c1	858
Cc1noc(-c2cc(=O)n(CC(=O)NC3CCCC3)c3ccccc23)n1	782
COc1cccc(-c2noc(Cn3ccnc3C)n2)c1	624

(a) Cn1c(CCNC(=O)c2cccc(C#N)c2)nc2cccnc21
(b) Cc1ccc(Sc2nccnc2N2CCCC(C(=O)NCCC(C)C)C2)cc1 (stereo not given)
Which of the two gives a bigger number for RP-LC retention time: a or b ? Output the label that corresponds to your choice.
b
(b: 1140 s, a: 601 s)

====

assay: gradient 5% acetonitrile 3 min, to 50% in 2 min, to 85% in 15 min, held 3 min, 100 µL/min; settings: column: Zorbax Extend-C18 2.1 x 50 mm; eluents: water / acetonitrile, 0.1% formic acid
measurement-name: RP-LC retention time (s)

(1) O=C(CC1=NS(=O)(=O)c2ccccc2N1)Nc1ccc(F)cc1F
(2) O=C(CSc1cc(NCc2ccc(Cl)cc2)ncn1)Nc1ccc(F)cc1F
Which of the two gives a bigger number for RP-LC retention time: 1 or 2 ? Output the label that corresponds to your choice.
2
(2: 988 s, 1: 679 s)

(P) COc1cccc(S(=O)(=O)N2CCC(N3C[C@H](OC)[C@@H]3c3ccncc3)CC2)c1
(Q) CCOc1ccc(-c2ccc(=O)n(CCc3nc(-c4cccc(OC)c4OC)no3)n2)cc1
Would you kindly point out which of P and Q has the smaller RP-LC retention time figure? Output the label that corresponds to your choice.
P
(P: 625 s, Q: 952 s)

====

assay: gradient 5% acetonitrile 3 min, to 50% in 2 min, to 85% in 15 min, held 3 min, 100 µL/min; settings: column: Zorbax Extend-C18 2.1 x 50 mm; eluents: water / acetonitrile, 0.1% formic acid
measurement-name: RP-LC retention time (s)

molecule	RP-LC retention time, s
O=C(CSc1nccn1Cc1ccco1)Nc1ccccc1C(F)(F)F	637
O=C(Cn1c(=O)oc2ccccc21)N1CCCc2ccccc21	866
COc1ccc(NC(=O)c2cccc(N3CCNC(c4ccccc4)C3)n2)cc1 (stereo not given)	665
O=C(Nc1c(-c2ccccc2)nc2ccc(Cl)cn12)c1ccc(F)cc1	750
Cc1sc(-c2noc(C(C)C)n2)cc1S(=O)(=O)N1CCC(C(=O)N2CCOCC2)CC1	909

====

experiment: gradient 5% acetonitrile 3 min, to 50% in 2 min, to 85% in 15 min, held 3 min, 100 µL/min; details: column: Zorbax Extend-C18 2.1 x 50 mm; eluents: water / acetonitrile, 0.1% formic acid
measurement-name: RP-LC retention time (s)

compound	units	RP-LC retention time
Cc1cc(F)ccc1NC(=O)C(C)C1CCN(C(=O)Nc2ccc(Cl)cc2)CC1 (centres undefined)	s	974
CCOc1cccc(-c2noc(-c3nnn4c3COC(c3ccc(Cl)cc3)C4)n2)c1 (centres undefined)	s	1320
Cc1ccc2c(Nc3ccc(C)c(F)c3)c(C(=O)N3CCOCC3)cnc2n1	s	599
Cc1cc(C)cc(NC(=O)C2CCN(S(C)(=O)=O)c3cc(Cl)ccc3O2)c1 (centres undefined)	s	1020
Cc1ccc(NC(=O)C2CCN(S(=O)(=O)c3cn(C(C)C)cn3)CC2)cc1Cl	s	883
COC(=O)c1ccccc1C(=O)N(Cc1cccnc1)c1nc2ccc(F)cc2s1	s	722
CCCNS(=O)(=O)c1cc2n(c1)CCCN(C(C)C)C2=O	s	678
O=C(NCCCNC(=O)NC1CCCCC1)NC1CCCCC1	s	673
Cc1ccc(-c2nc(NC(=O)CCCOc3ccc(Cl)cc3)sc2C)cc1	s	1250
CCOc1cc(=O)n2c(c1C(=O)NCc1ccc3c(c1)OCO3)CCCC2	s	707

(I) O=S(=O)(Nc1ccc(Cn2cncn2)cc1)c1cccc(Cl)c1
(II) O=C(Nc1ccc(-c2nc(-c3ccc(F)cc3)no2)cc1)c1ccco1
Which of the two gives a bigger number for RP-LC retention time: I or II ? Output the label that corresponds to your choice.
II

====

assay: gradient 5% acetonitrile 3 min, to 50% in 2 min, to 85% in 15 min, held 3 min, 100 µL/min; conditions: column: Zorbax Extend-C18 2.1 x 50 mm; eluents: water / acetonitrile, 0.1% formic acid
measurement-name: RP-LC retention time (s)

Check out these entries, answers already filled in.
compound	RP-LC retention time, s
O=C(NC1(c2nc(-c3ccncc3)no2)CCCCC1)c1ccccc1F	911
Cc1cc(C)nc(Nc2nc(CC(=O)NCCc3ccc(S(N)(=O)=O)cc3)cs2)n1	604
CCn1ccc2sc(C)c(C(=O)NCc3ccccc3Br)c2c1=O	926

(P) COc1ccc(-c2nc3n(c2C(=O)Nc2nc(-c4ccc(C)cc4)cs2)CCS3(=O)=O)cc1
(Q) COc1ccc(NC(=O)Nc2c(-c3ccncc3)[nH]c3ccc(F)cc23)c(OC)c1
Would you kindly point out which of P and Q has the smaller RP-LC retention time figure? Output the label that corresponds to your choice.
Q
(Q: 683 s, P: 1060 s)

(A) CCOc1ccc(NC(=O)C(C)C2CCN(C(=O)Nc3ccc(Cl)cc3)CC2)cc1 (stereo not given)
(B) Cc1ccc2nc(C(=O)NCc3ccc4c(c3)OCO4)cn2c1
Would you kindly point out which of A and B has the smaller RP-LC retention time figure? Output the label that corresponds to your choice.
B
(B: 628 s, A: 942 s)

====

assay: gradient 5% acetonitrile 3 min, to 50% in 2 min, to 85% in 15 min, held 3 min, 100 µL/min; conditions: column: Zorbax Extend-C18 2.1 x 50 mm; eluents: water / acetonitrile, 0.1% formic acid
measurement-name: RP-LC retention time (s)

Check out these entries, answers already filled in.
compound	RP-LC retention time, s
Cc1ccn2cc(C(=O)NCCC(C)C)nc2c1	640
O=[N+]([O-])c1ccc(Sc2ncccn2)c([N+](=O)[O-])c1	900
COc1cccc(-c2cn3ccn(-c4ccc5c(c4)CCC5)c(=O)c3n2)c1	914
COc1cccc(CN2CC(=O)N(Cc3ccc(F)cc3)c3ccccc3S2(=O)=O)c1	1100
CCCN(CC1CCOC1)S(=O)(=O)Cc1ccccc1Cl (centres undefined)	930

(A) COc1ccc(-c2nc(N3CCCCC3)c3ccccc3n2)cc1
(B) O=C1c2ccccc2-c2c1c1ccccc1c(=O)n2Cc1ccccc1
Would you kindly point out which of A and B has the smaller RP-LC retention time figure? Output the label that corresponds to your choice.
A
(A: 777 s, B: 1130 s)

(a) COc1ccc(C(=O)N[C@@H]2CCC[C@@H]2C(=O)N(C)C)cn1
(b) Cc1cc(C)c(NC(=O)Cn2cnc3c(sc4nc(-c5ccccc5)ccc43)c2=O)c(C)c1
Which of the two gives a bigger number for RP-LC retention time: a or b ? Output the label that corresponds to your choice.
b
(b: 1050 s, a: 595 s)

(a) OC1(c2ccccn2)CCOC2(CCN(Cc3ccc(F)cc3Cl)CC2)C1 (centres undefined)
(b) CCOc1ccc(NC(=O)CN2C(=O)c3ccccc3C2=O)c([N+](=O)[O-])c1
Which of the two gives a bigger number for RP-LC retention time: a or b ? Output the label that corresponds to your choice.
b
